Measured logP, listed per entry for reference.
# ASSAY REMARKS: method code SF, from Hansch, C. & Leo, A. (1987). Log P database [Dataset]. Pomona College Medicinal Chemistry Project.
Enter the number alone.

-- ask // returns reported logP for input CCCCC(=Cc1ccccc1)C(=O)NC(C)CC (stereo unspecified)
-- reply 4.07

-- ask Cool, now `CCCCO[N+](=O)[O-]`
-- reply 2.15

-- ask Cool, now `NCCc1c[nH]c2ccc(O)cc12`
-- reply 0.21

----------
# ASSAY REMARKS: method code SF, from Hansch, C. & Leo, A. (1987). Log P database [Dataset]. Pomona College Medicinal Chemistry Project.
READOUT LABEL: logP
Enter the number alone.

Some solved entries appear below for comparison.
CCCc1ccc2c(c1)C(=O)c1ccc(NC(C)=O)cc1S2(=O)=O ... 3.51
O=C(/C=C/c1ccccc1)Nc1ccccc1 ... 3.61
COC(=O)C(C)Oc1ccc(Oc2ccc(Cl)cc2Cl)cc1 (configuration not stated) ... 4.8
O=[N+]([O-])c1ccc(OCCn2ccnc2)cc1 ... 1.69
O=S1(=O)NC(C2CC=CC2)=Nc2ccccc21 ... 1.53
O=c1[nH]nc(Sc2ccccc2)[nH]1 ... 1.46
Cc1ccc2c(=O)[nH]c(=O)[nH]c2c1 ... 0.55
CCOC(=O)C(=Cc1cccc([N+](=O)[O-])c1)C(=O)OCC ... 2.71

-- ask // returns reported logP for input CCOP(=O)(OCC)SCS(=O)CC (configuration not stated)
-- reply 1.69

-- ask Cool, now `NC(=O)CCl`
-- reply -0.53

-- ask Cool, now `O=[N+]([O-])c1ccc(C=Cc2nc3ccccc3[nH]2)o1`
-- reply 1.4

-- ask Cool, now CNc1nccn2cc(-c3ccc(S(C)=O)cc3OC)nc12 (configuration not stated)
-- reply 1.88

-- ask Cool, now `CN(C)C(=O)Nc1ccc(OCc2ccc(Cl)cc2Cl)cc1`
-- reply 4.1

-- ask Cool, now `Cc1nnc(C)s1`
-- reply 0.03

-- ask Cool, now `NC(=O)c1ccc(F)cc1`
-- reply 0.91

-- ask Cool, now `O=[N+]([O-])c1ccc(N2CCCCC2)cc1`
-- reply 3.26

-- ask Cool, now `OC12CC3CC(CC(C3)C1)C2`
-- reply 2.14

-- ask Cool, now `CCOC(=O)c1csc(C=Cc2ccc([N+](=O)[O-])o2)n1`
-- reply 1.3

-- ask Cool, now `CCOC(=O)C(=Cc1cccc(OC)c1OC)C(C)=O`
-- reply 2.21

-- ask Cool, now `CC(=NO)c1ccsc1`
-- reply 1.81

-- ask Cool, now CCCCC1OC(=O)c2cc(O)ccc21 (configuration not stated)
-- reply 3.12

-- ask Cool, now `CCC1(CCC(C)C)C(=O)NC(=S)NC1=O`
-- reply 2.98

----------
# ASSAY REMARKS: method code SF, from Hansch, C. & Leo, A. (1987). Log P database [Dataset]. Pomona College Medicinal Chemistry Project.
READOUT LABEL: logP
Enter the number alone.

Some solved entries appear below for comparison.
O=C1CCC2CCCCC2C1 (stereo not drawn) ... 1.97
Cc1ccc(N)nc1 ... 1.02

-- ask // returns reported logP for input `CC(=O)C(=Cc1ccccc1C)C(C)=O`
-- reply 1.98

----------
# ASSAY REMARKS: method code SF, from Hansch, C. & Leo, A. (1987). Log P database [Dataset]. Pomona College Medicinal Chemistry Project.
READOUT LABEL: logP
Enter the number alone.

O=C1OC(Cc2ccccc2)c2ccccc21 (centres undefined) ... 3.12

From here, focus on the item given below.
-- ask // returns reported logP for input `C[C@@H]1C[C@H]2[C@@H]3C[C@H](F)C4=CC(=O)C(Cl)=C[C@]4(C)[C@@]3(Cl)[C@@H](O)C[C@]2(C)[C@@]1(O)C(=O)COC(=O)C(C)(C)C`
-- reply 4.73

All values here come from the SangsterLogP compilation.
